// data source = patent US8710044B2

# system: P70S6K (T412E mutant, Millipore) (Homo sapiens, UniProt P23443, T412E)
# Sequence (P23443 whole entry T412E): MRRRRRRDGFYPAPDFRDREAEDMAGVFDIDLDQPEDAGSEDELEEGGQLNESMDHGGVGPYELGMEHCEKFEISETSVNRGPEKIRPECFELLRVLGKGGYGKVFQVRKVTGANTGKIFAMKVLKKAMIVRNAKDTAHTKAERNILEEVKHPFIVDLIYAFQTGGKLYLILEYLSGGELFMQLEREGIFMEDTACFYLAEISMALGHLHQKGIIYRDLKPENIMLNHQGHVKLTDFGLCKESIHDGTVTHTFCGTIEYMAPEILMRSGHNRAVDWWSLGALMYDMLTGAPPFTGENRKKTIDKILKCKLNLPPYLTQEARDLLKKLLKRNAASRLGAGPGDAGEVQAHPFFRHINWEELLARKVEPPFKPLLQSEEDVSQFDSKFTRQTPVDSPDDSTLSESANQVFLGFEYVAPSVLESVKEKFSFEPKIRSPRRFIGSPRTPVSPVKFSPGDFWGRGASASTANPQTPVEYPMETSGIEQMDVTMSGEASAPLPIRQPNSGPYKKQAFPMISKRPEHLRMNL
# experiment.description: P70S6K Enzyme Assay
# conditions.used: 3 nM enzyme, 24 μM ATP, 1 μM FITC-AHA-[…]-OH substrate peptide, 90 min at 25° C., Caliper Lab Chip 3000
measurement.label: IC50 (nM)

Consider the following illustrative entries.
[
  {
    "compound": "CNC[C@@H](Nc1nc(C)nc2c(C(N)=O)cccc12)c1ccc(Cl)cc1 [Example 19]",
    "IC50 [nM]": 0.83
  },
  {
    "compound": "CCc1nc(N[C@H](CN2CCC2)c2ccc(Cl)cc2)c2cccc(C(N)=O)c2n1 [Example 32]",
    "IC50 [nM]": 5.5
  },
  {
    "compound": "CCc1nc(N[C@H](CN2CCC2)c2ccccc2)c2cccc(C(N)=O)c2n1 [Example 30]",
    "IC50 [nM]": 33.6
  },
  {
    "compound": "CNC[C@@H](Nc1nc(C(C)C)nc2c(C(N)=O)cccc12)c1ccc(Cl)cc1 [Example 18]",
    "IC50 [nM]": 23
  },
  {
    "compound": "CNC[C@@H](Nc1nc(C)nc2c(C(N)=O)cccc12)c1cccc(F)c1 [Example 17]",
    "IC50 [nM]": 139
  },
  {
    "compound": "Cc1nc(N[C@H](CN2CCC2)c2cccc(F)c2)c2cccc(C(N)=O)c2n1 [Example 34]",
    "IC50 [nM]": 7
  },
  {
    "compound": "CNC[C@@H](Nc1nc(C)nc2c(C(N)=O)cccc12)c1cc(F)ccc1F [Example 53]",
    "IC50 [nM]": 3
  },
  {
    "compound": "Cc1nc(N[C@H](CN2CCC2)c2ccc(Cl)cc2)c2cccc(C(N)=O)c2n1 [Example 31]",
    "IC50 [nM]": 2.6
  }
]

(1) CCc1nc(N[C@H](CN2CCC2)c2ccc(F)cc2)c2cccc(C(N)=O)c2n1 [Example 36]
(2) CCc1nc(N[C@H](CNC)c2cccc(F)c2)c2cccc(C(N)=O)c2n1 [Example 20]
(3) CNC[C@@H](Nc1nc(C)nc2c(C(N)=O)cccc12)c1ccc(OC(F)(F)F)c(Cl)c1 [Example 52]
(4) CCc1nc(N[C@H](CN2CCC2)c2cccc(F)c2)c2cccc(C(N)=O)c2n1 [Example 28]
Sort by IC50, descending. Labels, ranked as asked. 1, 4, 2, 3
(1: 30 nM, 4: 18.5 nM, 2: 1.97 nM, 3: 1 nM)
